Target: T1, Human ST2 (human, UniProt Q01638 19-328, limits assumed)
T1 construct: also called human ST2 protein; Interleukin 1 receptor-like 1
T1 sequence (looked up): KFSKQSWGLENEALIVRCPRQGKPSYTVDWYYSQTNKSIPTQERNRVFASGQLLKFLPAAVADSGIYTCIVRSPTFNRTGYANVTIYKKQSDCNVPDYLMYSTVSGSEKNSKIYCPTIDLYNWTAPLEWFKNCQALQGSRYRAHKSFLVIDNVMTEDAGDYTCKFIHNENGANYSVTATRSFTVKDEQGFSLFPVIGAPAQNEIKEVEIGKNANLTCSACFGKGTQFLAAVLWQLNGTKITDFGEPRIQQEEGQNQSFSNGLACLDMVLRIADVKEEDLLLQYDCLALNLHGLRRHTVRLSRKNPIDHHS
Test: SPR (Carterra), antibody immobilized, ST2 analyte
PROPERTY: koff (s⁻¹)
Number only, in s⁻¹; omit the unit.

{"BINDER": "Human ST2 IgG1 Antibody 17 (antibody, V domains shown, IgG1; also called ST2 Antibody 17) VH: QVQLVQSGAEVKKPGASVKVSCKASGYTFTDSFMFWVRQAPGQGLEWVGLINPGTGATIFAQKFQGRVTMTRDTSTSTVYMELSSLRSEDTAVYYCARSSDYDSSDYWGQGTLVTVSS VL: DIQMTQSPSSLSASVGDRVTITCRASQSISTWLAWYQQKPGKAPKLLIYGASSLQSGVPSRFSGSGSGTDFTLTISSLQPEDFATYYCQQSYNSPYTFGQGTKVEIKR", "QUANTITY_UNIT": "s⁻¹", "koff": 0.033}

Annotate the binder Human ST2 IgG1 Antibody 66 (antibody, V domains shown, IgG1; also called ST2 Antibody 66) VH: QVQLVQSGAEVKKPGSSVKVSCKASGGTFSSNAISWVRQAPGQGLEWMGGIIPIFGTANYAQKFQGRVTITADESTSTAYMELSSLRSEDTAVYYCAGSPTGTPRVVFDYWGQGTLVTVSS VL: DIVMTQSPLSLPVTPGEPASISCRSSQSLLHSNGYNYLDWYLQKPGQSPQLLIYAASSLQSGVPDRFSGSGSGTDFTLKISRVEAEDVGVYYCMQALQTPITFGQGTRLEIKR with its measured koff.
0.0028

Annotate the binder Human ST2 IgG1 Antibody 62 (antibody, V domains shown, IgG1; also called ST2 Antibody 62) VH: QVQLVQSGAEVKKPGSSVKVSCKASGYIFTNYWIQWVRQAPGQGLEWMGGIIPIFETANYAQKFQGRVTITADDSTSTAYMELSSLRSEDTAVYYCARLGDRGDFDYWGQGTLVTVSS VL: DIVMTQSPDSLAVSLGERATINCKSSQSISHSPNTRDYLAWYQQKPGQPPKLLIYWASTRESGVPDRFSGSGSGTDFTLTISSLQAEDVAVYYCQQYYRFPLAFGQSTKVEIKR with its measured koff.
0.068

These measurements were taken from patent US20210403579A1.
